Molecular target: Aldo-keto reductase family 1 member B1 (Homo sapiens, UniProt P15121)
Assay: Inhibition of AKR1B1 (unknown origin)

{"columns": ["MOLECULE_SMILES", "IC50"],
 "data": [
  ["O=C(/C=C/c1ccc(O)cc1)CC(=O)/C=C/c1ccc(O)cc1", "5.1 µM"]
]}

###

Target: Aldo-keto reductase family 1 member B1 (Homo sapiens, UniProt P15121)
Test: Inhibition of human recombinant AKR1B1 (1 to 316 residues) expressed in Escherichia coli using pyridine-3-aldehyde as substrate
pIC50: −log10 of the molar value.
METRIC: pIC50

{"columns": ["MOLECULE_SMILES", "METRIC", "RECORDED_VALUE"],
 "data": [
  ["C[C@@]12CCC[C@H]1[C@@H]1C[C@@H](O)[C@@]3(O)C[C@@H](O)CC[C@]3(CO)[C@H]1CC2", "pIC50", "< 4.00"]
]}

###

Target: Aldo-keto reductase family 1 member B10 (Homo sapiens, UniProt O60218)
Sequence (O60218 whole entry): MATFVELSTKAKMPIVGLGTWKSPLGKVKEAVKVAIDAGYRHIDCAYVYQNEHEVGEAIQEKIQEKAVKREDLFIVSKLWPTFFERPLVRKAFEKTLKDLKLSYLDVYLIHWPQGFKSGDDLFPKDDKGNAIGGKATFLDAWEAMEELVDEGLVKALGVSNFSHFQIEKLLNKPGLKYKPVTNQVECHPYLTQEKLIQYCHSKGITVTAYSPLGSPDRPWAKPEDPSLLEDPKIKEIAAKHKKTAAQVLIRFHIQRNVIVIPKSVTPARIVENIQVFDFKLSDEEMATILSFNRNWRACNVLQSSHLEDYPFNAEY
Test: Competitive inhibition of recombinant human AKR1B10 in presence of geraniol as substrate by Lineweaver-Burk plot method

{"columns": ["MOLECULE_SMILES", "Ki"],
 "data": [
  ["O=C(NCCCc1ccc(O)cc1)c1cc2ccc(O)cc2oc1=O", "2.3 nM"]
]}

###

Property: IC50; scope: individual compounds
Target: Aldo-keto reductase family 1 member C3 (Homo sapiens, UniProt P42330)
Sequence (P42330 whole entry): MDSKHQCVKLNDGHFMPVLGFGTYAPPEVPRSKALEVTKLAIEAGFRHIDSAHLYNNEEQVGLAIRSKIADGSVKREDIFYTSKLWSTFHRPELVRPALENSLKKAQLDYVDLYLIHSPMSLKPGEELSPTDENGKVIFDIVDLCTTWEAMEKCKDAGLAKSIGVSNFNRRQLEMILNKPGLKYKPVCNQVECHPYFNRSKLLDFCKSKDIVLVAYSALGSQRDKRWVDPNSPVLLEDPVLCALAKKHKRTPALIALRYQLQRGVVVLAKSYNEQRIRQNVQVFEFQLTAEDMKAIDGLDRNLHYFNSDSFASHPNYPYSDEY
Experiment: Inhibition of recombinant human AKR1C3 using S-tetralol as substrate
METRIC: IC50 (nM)

{"columns": ["MOLECULE_SMILES", "SUBJECT_OF_TEST", "RECORDED_VALUE"],
 "data": [
  ["O=C(NCCCc1ccc(O)cc1)c1cc2ccc(O)cc2oc1=O", "Aldo-keto reductase family 1 member C3 (Homo sapiens, UniProt P42330)", 1600],
  ["O=C(NCCCc1ccc(F)cc1)c1cc2ccc(O)cc2oc1=O", "Aldo-keto reductase family 1 member C3 (Homo sapiens, UniProt P42330)", 470]
]}

###

Biological target: UniProt O60218
Experiment: Inhibition of recombinant human AKR1B10 using pyridine-3-aldehyde as substrate
pIC50: −log10 of the molar value.
METRIC: pIC50

{"columns": ["MOLECULE_SMILES", "RECORDED_VALUE"],
 "data": [
  ["COc1ccc(CCCNC(=O)c2cc3ccc(O)cc3oc2=O)cc1", 7.96],
  ["O=C(NCCCc1cccc(O)c1)c1cc2ccc(O)cc2oc1=O", 8.08],
  ["O=C(NCCCc1cc(F)cc(F)c1)c1cc2ccc(O)cc2oc1=O", 8.11],
  ["O=C(NCCCCc1ccc(O)cc1)c1cc2ccc(O)cc2oc1=O", 7.96],
  ["Cc1ccc(CCCNC(=O)c2cc3ccc(O)cc3oc2=O)cc1", 8.15],
  ["O=C(NCCCc1ccc(F)cc1)c1cc2ccc(O)cc2oc1=O", 8.46],
  ["O=C(NCCCc1ccc(O)cc1)c1cc2ccc(O)cc2oc1=O", 8.38],
  ["O=C(NCCCc1ccc(O)cc1)c1cc2ccccc2oc1=O", 5.57],
  ["O=C(NCCc1ccc(O)cc1)c1cc2ccc(O)cc2oc1=O", 7.70],
  ["COc1ccc(/N=c2\\oc3cc(O)ccc3cc2C(=O)NCCCc2cccc(O)c2)cc1", 8.12],
  ["O=C(NCCCc1cccc(F)c1)c1cc2ccc(O)cc2oc1=O", 8.22],
  ["O=C(NCCCc1ccccc1O)c1cc2ccc(O)cc2oc1=O", 8.19],
  ["O=C(NCCCc1ccc(O)cc1)c1cc2cccc(O)c2oc1=O", 5.82]
]}

###

Property: pIC50; scope: individual compounds
Target: Aldo-keto reductase family 1 member B1 (Homo sapiens)
Assay: Inhibition of recombinant human AKR1B1 using pyridine-3-aldehyde as substrate
pIC50: −log10 of the molar value.

{"columns": ["MOLECULE_SMILES", "RELATION_OPERATOR", "pIC50"],
 "data": [
  ["Cc1ccc(CCCNC(=O)c2cc3ccc(O)cc3oc2=O)cc1", "=", 6.70],
  ["COc1ccc(/N=c2\\oc3cc(O)ccc3cc2C(=O)NCCCc2cccc(O)c2)cc1", "=", 7.82],
  ["O=C(NCCCCc1ccc(O)cc1)c1cc2ccc(O)cc2oc1=O", "=", 6.50],
  ["O=C(NCCCc1ccc(O)cc1)c1cc2ccc(O)cc2oc1=O", "=", 6.69],
  ["COc1ccc(CCCNC(=O)c2cc3ccc(O)cc3oc2=O)cc1", "=", 6.41],
  ["O=C(NCCCc1ccccc1O)c1cc2ccc(O)cc2oc1=O", "=", 6.66],
  ["O=C(NCCCc1cc(F)cc(F)c1)c1cc2ccc(O)cc2oc1=O", "=", 6.49],
  ["O=C(NCCCc1ccc(O)cc1)c1cc2cccc(O)c2oc1=O", "=", 5.02],
  ["O=C(NCCc1ccc(O)cc1)c1cc2ccc(O)cc2oc1=O", "=", 7.01],
  ["O=C(NCCCc1cccc(O)c1)c1cc2ccc(O)cc2oc1=O", "=", 6.74],
  ["O=C(NCCCc1ccc(O)cc1)c1cc2ccccc2oc1=O", "<", 5.00],
  ["O=C(NCCCc1cccc(F)c1)c1cc2ccc(O)cc2oc1=O", "=", 6.47],
  ["O=C(NCCCc1ccc(F)cc1)c1cc2ccc(O)cc2oc1=O", "=", 6.56]
]}

###

Target: Aldo-keto reductase family 1 member B10 (Homo sapiens, UniProt O60218)
Assay: Inhibition of recombinant human intestinal N-terminal 6-His-tagged AKR1B10 expressed in Escherichia coli BL21 (DE3) pLysS cells using pyridine-3-aldehyde as substrate by fluorescence assay
pIC50: −log10 of the molar value.

{"columns": ["MOLECULE", "pIC50"],
 "data": [
  ["C[C@H](CCC(=O)O)[C@H]1CC[C@H]2[C@@H]3CC[C@@H]4C[C@@H](O)CC[C@]4(C)[C@H]3CC[C@]12C [ISOLITHOCHOLIC ACID]", 7.57]
]}

###

Molecular target: Aldo-keto reductase family 1 member B10 (Homo sapiens)
Assay: Inhibition of AKR1B10 (unknown origin)
pIC50: −log10 of the molar value.
METRIC: pIC50

{"columns": ["MOLECULE_SMILES", "RECORDED_VALUE"],
 "data": [
  ["O=C(/C=C/c1ccc(O)cc1)CC(=O)/C=C/c1ccc(O)cc1", 7.22]
]}

###

Target: Aldo-keto reductase family 1 member C1 (Homo sapiens)
Sequence (Q04828 whole entry): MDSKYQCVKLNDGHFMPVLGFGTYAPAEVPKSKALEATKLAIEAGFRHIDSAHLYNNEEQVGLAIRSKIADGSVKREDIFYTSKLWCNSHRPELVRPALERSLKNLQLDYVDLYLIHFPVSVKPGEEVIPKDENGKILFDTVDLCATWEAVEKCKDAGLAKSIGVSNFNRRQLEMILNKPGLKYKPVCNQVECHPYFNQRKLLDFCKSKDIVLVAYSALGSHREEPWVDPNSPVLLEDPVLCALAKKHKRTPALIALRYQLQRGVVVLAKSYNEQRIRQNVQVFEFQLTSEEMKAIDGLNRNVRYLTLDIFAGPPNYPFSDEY
Test: Inhibition of recombinant human AKR1C1 using S-tetralol as substrate

{"columns": ["MOLECULE_SMILES", "SUBJECT_OF_TEST", "IC50 / µM"],
 "data": [
  ["O=C(NCCCc1ccc(O)cc1)c1cc2ccc(O)cc2oc1=O", "Aldo-keto reductase family 1 member C1 (Homo sapiens)", 0.95],
  ["O=C(NCCCc1ccc(F)cc1)c1cc2ccc(O)cc2oc1=O", "Aldo-keto reductase family 1 member C1 (Homo sapiens)", 12]
]}

###

Biological target: UniProtKB P15121
Experiment: Inhibition of recombinant human AKR1B1 using pyridine-3-aldehyde as substrate by fluorescence assay

{"columns": ["MOLECULE_SMILES", "IC50 [µM]"],
 "data": [
  ["C[C@H](CCC(=O)O)[C@H]1CC[C@H]2[C@@H]3CC[C@@H]4C[C@@H](O)CC[C@]4(C)[C@H]3CC[C@]12C", 6.9]
]}

###

Molecular target: Aldo-keto reductase family 1 member C4 (Homo sapiens, UniProt P17516)
Sequence (P17516 whole entry): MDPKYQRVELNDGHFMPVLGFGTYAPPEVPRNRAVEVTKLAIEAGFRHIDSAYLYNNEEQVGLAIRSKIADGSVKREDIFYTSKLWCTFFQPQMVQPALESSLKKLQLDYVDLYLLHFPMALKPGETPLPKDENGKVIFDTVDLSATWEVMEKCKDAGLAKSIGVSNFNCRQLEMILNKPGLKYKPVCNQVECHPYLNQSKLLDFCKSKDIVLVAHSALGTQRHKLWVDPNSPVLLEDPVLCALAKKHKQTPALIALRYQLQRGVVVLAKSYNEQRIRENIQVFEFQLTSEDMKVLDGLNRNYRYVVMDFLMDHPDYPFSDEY
Test: Inhibition of recombinant human AKR1C4 using S-tetralol as substrate
Property: IC50; scope: individual molecules
METRIC: IC50 (µM)

{"columns": ["MOLECULE_SMILES", "SUBJECT_OF_TEST", "METRIC", "UNITS", "RECORDED_VALUE"],
 "data": [
  ["O=C(NCCCc1ccc(O)cc1)c1cc2ccc(O)cc2oc1=O", "Aldo-keto reductase family 1 member C4 (Homo sapiens, UniProt P17516)", "IC50", "µM", 0.82],
  ["O=C(NCCCc1ccc(F)cc1)c1cc2ccc(O)cc2oc1=O", "Aldo-keto reductase family 1 member C4 (Homo sapiens, UniProt P17516)", "IC50", "µM", 0.35]
]}
